assay-procedure: physchem
condition-label: octan-1-ol/water, pH 7.4, LogD7.4
logD: recorded values
recorded-metric: logD

1) O=CNc1cc([C@@H](O)CNCCc2ccc(NC[C@H](O)c3ccccc3)cc2)ccc1O	0.02
2) Cc1ccc(CO)cc1N(C)c1ccnc(Nc2cc(N3CCCC3)cc(N3CCOCC3)c2)n1	3.8
3) CCCN(C)c1nc(N2CCC[C@@H](CC(=O)O)C2)ccc1C(=O)NC1CCCCC1	2.28
4) NNc1nc2ccccc2[nH]c1=O	0.44
5) CCCSc1c(C(=O)NC2CCCCC2)cnn1-c1ccc(C(=O)O)cc1	0.64

----------
fraction unbound at 5 h: recorded values
assay-procedure: in vitro
condition-label: SD, HW or BN, rat, plasma
recorded-metric: fraction unbound at 5 h

1. CCC(CC)NC(=O)c1c(C)nn(-c2ccccc2)c1NS(=O)(=O)c1ccc(C)cc1	0.03
2. Cc1cnc(C(=O)c2ncnc3[nH]ccc23)c(NS(=O)(=O)c2ccc(Cl)c(C(F)(F)F)c2)c1 [ILACIRNON]	0.0021
3. Cc1cc(Nc2cnc(C#N)c(N[C@@H](C)c3ncc(F)cn3)n2)n[nH]1	0.376
4. Cc1c(F)cc(C(=O)NC2CC2)cc1-c1ccc(C(=O)NCC(C)(C)C)cn1 [LOSMAPIMOD]	0.0818
5. C[S+]([O-])Cc1ccc(C(=O)Nc2nccnc2C(=O)NCC2CCC2)c2ccccc12 (stereo not given)	0.0988

----------
assay-procedure: physchem
condition-label: octan-1-ol/water, pH 7.4, LogD7.4
Using logD as the sorting value, the categories are bucket 1 (below 1), bucket 2 (1 to below 3), bucket 3 (3 or more)

1) Cc1ccc(C)c(OCCCC(C)(C)C(=O)O)c1 [GEMFIBROZIL]	bucket 1
2) CCCc1nn(C)c2c(=O)[nH]c(-c3cc(S(=O)(=O)N4CCN(C)CC4)ccc3OCC)nc12	bucket 2
3) CNc1cccc(CCOc2ccc(C[C@H](NC(=O)c3c(Cl)cccc3Cl)C(=O)O)cc2)n1	bucket 1
4) C[C@@](O)(C(=O)Nc1ccc(S(C)(=O)=O)cc1Cl)C(F)(F)F	bucket 2
5) CC#Cc1cncc(-c2cccc(C3(C4CC4)N=C(C)C(N)=N3)c2)c1 (stereo not given)	bucket 3
6) CC(C)NCC(O)COc1ccc(COCCOC(C)C)cc1 (stereo not given) [BISOPROLOL]	bucket 1
7) Cc1ncc(CO)c(CO)c1O [PYRIDOXINE]	bucket 1
8) O=S(=O)(Nc1nnc(-c2ccccc2)s1)c1ccc(Cl)cc1	bucket 2
9) Nc1ncnc2nc(-c3ccc(N4CCOCC4)nc3)cc(-c3cccc(Br)c3)c12	bucket 3
10) O=C(Nc1ccc(N2CCOCC2)cc1)c1nnc(NC(=O)C2(c3ccc(Cl)cc3)CCCC2)o1	bucket 3
11) CCn1c(-c2nonc2N)nc2c(C#CC(C)(C)O)ncc(OCC3CCCNC3)c21 (stereo not given)	bucket 1
12) COc1cc(N2CC[C@@H](N(C)C)C2)c2[nH]c(C(=O)Nc3ccc(N4CCOCC4)cc3)cc(=O)c2c1	bucket 2
13) Cc1ccc(-c2ncc(CN3CCOCC3)s2)cc1NC(=O)c1ccc(OCc2ccccn2)cc1	bucket 3
14) NC(=O)c1cccc(OC2CCN(CC3CC3)CC2)c1	bucket 1
15) CC(C)C(NC(=O)Cn1c(-c2ccccc2)ccc(NS(N)(=O)=O)c1=O)C(=O)C(F)(F)F (stereo not given)	bucket 2
16) CC(Cc1cccc(CNCCc2c(Cl)cccc2Cl)c1)NC[C@H](O)c1ccc(O)c2[nH]c(=O)sc12 (stereo not given in full)	bucket 2
17) Fc1ccc(C2CCN(C(=S)COCc3ccncc3)CC2)c(Cl)c1	bucket 3
18) O=C(NCC12CC3CC(CC(C3)C1)C2)c1cc(C2CCNCC2)ccc1Cl	bucket 2
19) c1ccc(-c2cc(NCCCCCCCCNc3cc(-c4ccccc4)nc4ccccc34)c3ccccc3n2)cc1	bucket 2
